Test system: MS2 coat protein
Test: apparent KD of MS2 coat protein; higher = weaker reporter binding
Settings: Eterna round: R107; input ligand: tryptophan 2.4 mM
If the reported apparent KD of MS2 coat protein equals or exceeds 50 nM, assign 1. If not, assign -1.

{"columns": ["CHAIN_SEQUENCE", "ASSIGNED_CATEGORY"],
 "data": [
  ["GAUUACAUGAGGAUCACCCAUGUAACUGAAGGAGCGGUAAUAAAGCCAGGUAGGUCGCGGAACAACAUGUGGAUCACCCAUGUAA [#13 Exclusion - Arginine A]", -1],
  ["CCCAGUUAUAACAAAGGAAUAAUACUCGAAGGAGCGUCAUAGUAGGCAGGUAGGUCGCGAGACAUGAGGAUCACCCAUGUAGAGA [qvvmullin]", -1],
  ["AUAAUGGGUUUCGGACUAUCAUGGAAUGAUACCAGAUACUUAGAAAUCCCUUGGCAGCAUGAGGACAUGAGGAUCACCCAUGUAU [Th A Ex t1]", 1],
  ["AAGACGCCGGGAAGGAGCGCAUCCAAACCACACAUGAGGAUCACCCAUGUAUAAAUAUGCAUGCAGGUAGGUCGCCCGAUGUCCC [Orbemative]", -1],
  ["ACACAUGAGGAUCACCCAUGUGCGCUGGAAGGAGCGCAGAAUCAUGCAGGUAGGUCGCCAGUGCCCUCUACUAAAGGGAAAAGAG [Diatsoceri]", 1]
]}

* * *

Test system: K4 kissing-loop RNA reporter;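 also: bound reporter read as fluorescence of individual clusters on recovered sequencing chips by microscopy, with normalized cluster intensities fitted with a binding model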
Experiment: apparent KD of K4 kissing-loop reporter; higher = weaker reporter binding
Conditions: Eterna round: R107; input ligand: tryptophan 2.4 mM

{"columns": ["CHAIN_SEQUENCE", "TGT", "apparent KD of K4 kissing-loop reporter (nM)"],
 "data": [
  ["CGCAAGCAGCCAGUGAUGUUGGCCGCCUUGCGAGGACCGGUACGGCCGCCACUCGAAGGCGGCUAGUAGUAGUCUGUCUAACGGA [KL-XTryp-A16]", "K4 kissing-loop RNA reporter", 184],
  ["AAUAACUAGUAUAUUUGUAAUAAAACAGAUACCAGUGAUAAUAAACACCCUUGGCAGCUGAUCGAGUGAUGUUCGUUUAUUUUAA [JR_SSTheophyA_Sub004]", "K4 kissing-loop RNA reporter", 78.5],
  ["AAAAUUGCGGUUUUAAGAUCUUUUUGCUUACGAGGACCGGUACGGCCGCCACUCGAGUCAAGUGAUGUUUGAUUUUCUAUUAUUA [JR_ExcTryptoA_Sub015]", "K4 kissing-loop RNA reporter", 71.6]
]}

* * *

Measured apparent KD of MS2 coat protein accompanies every entry in the list below.
Tested on: MS2 coat protein
Assay: apparent KD of MS2 coat protein; designed switch direction (-1 OFF switch, 1 ON switch): -1; higher = weaker reporter binding
Details: input ligand: FMN 200 uM

{"columns": ["CHAIN_SEQUENCE", "TGT", "apparent KD of MS2 coat protein (nM)"],
 "data": [
  ["GGUCAGAUGGUAGGAUAUCUAUAUCGAGUGACCCUUUCAUAACAUGAGGAUCACCCAUGUCGGUGGGAGAAGGGCCGUACGGCG [salish99_ExNG02_R04_012] (Eterna round: R96, puzzle: Exclusion NG 2)", "MS2 coat protein", 41.1],
  ["CAGUACUGAGGAUAUACAUGAGGAUCACCCAUGUGUUCCAGCUAGGAAACUAGCAAAAGUAGAAGGCAGUACUG [Ex3: 828] (Eterna round: R96, puzzle: Exclusion 3)", "MS2 coat protein", 646],
  ["UUGAUGUAAGGAUAUCGUGCAAGUUUCAAAAGAGGCUUGUGCGAGAAGGUACAUGAGGAUCACCCAUGUAGGUU [Omei Ex4 B8] (Eterna round: R97, puzzle: Exclusion 4)", "MS2 coat protein", 113],
  ["AUAAGUAUAUAGGAUAUCUAGCUGGAUACAGCUAGAGAAGGAUGUACAUGAGGAUCACCCAUGUAAAUCUCAAU [Ex6/12-A1] (Eterna round: R97, puzzle: Exclusion 6)", "MS2 coat protein", 18.7],
  ["UCGUGUCUUGAGGAUAUGUUUGAAAAGGCCCACGCAGAAGGCGAGACAUGAGGAUCACCCAUGUCACAGCUCCG [EX6 C.16] (Eterna round: R97, puzzle: Exclusion 6)", "MS2 coat protein", 56.4],
  ["UUGGUUGGUGUAGGAUAUGUAUGAGGAUCACCCAUUAAUAAAUUUUAACCACGAGGAUCACCCGUGUAGAAGGACAUUGGUUAU [pwkr exNG2 2xF5 1xFMN.22] (Eterna round: R96, puzzle: Exclusion NG 2)", "MS2 coat protein", 52],
  ["UACACUGCAUGAGGAUCAAACAUGAGGAUCACCCAUGUAUAGCAAGCUUUUUGCGCGUCUUAUAAUUAUGUAGUGUA [Electric Eye 19 - Jieux - Sensor, turn-off variant 1] (Eterna round: R97, puzzle: Sensor, turn-off variant 1)", "MS2 coat protein", 15.8],
  ["AAGUACCGGUGAGGAUAUUUUUAAUAGAGCUUUAUGAUAUACAUGAGGAUCACCCAUGUUACGUUAAAGAAGGCAUCGGAUUAA [Mat - Exclusion NG 2 - Mod of JL - D97] (Eterna round: R96, puzzle: Exclusion NG 2)", "MS2 coat protein", 16.1],
  ["AAUUAGUGAGGAUAUUUUAACAGUGGUAGUAGACAGUGGAUGAAGAAGGCACAUGAGGAUCACCCAUGUUAUAA [EX4 #55] (Eterna round: R97, puzzle: Exclusion 4)", "MS2 coat protein", 164],
  ["CUGUUUGUAGGAUAUACAUGCGGAACCCUCCUCGUGUGAAGACAUGAGGAUCACCCAUGUAGAAGGACGAGGAG [Angeer] (Eterna round: R97, puzzle: Exclusion 2)", "MS2 coat protein", 16],
  ["CUAAUAUAUCAGGAUAUGAUUAUAUGUGUUAGAUCAGAAGGGAUAACAUGAGGAUCACCCAUGUUGUGGAGUGA [JR_Ex6_Sub035] (Eterna round: R97, puzzle: Exclusion 6)", "MS2 coat protein", 67.3],
  ["GCAGCAUAUGUAGGAUAUCUGCACGUGUAGUGCAGAGAAGGACAUGAGGAUCACCCAUGUAAUUAAGAUCAAUUAUUAAGCUGC [ENG1/4-A3] (Eterna round: R96, puzzle: Exclusion NG 1)", "MS2 coat protein", 37.7],
  ["CAACGAUGAGGAUAUACAUGAGGAUCACCCAUGUGGUCCAGCAGCCAUUACGGCGAAGGUAGAAGGCGUUAUUA [Eternabot (L2) Solution 54] (Eterna round: R97, puzzle: Exclusion 3)", "MS2 coat protein", 349],
  ["CAUUAUUAUCGAGGAUAUCCUAUUGAAAUUCUGGGAGAAGGCGGACUCAACAUGAGGAUCACCCAUGUGGGACGGAUGCUAGGC [salish99_exng1_r04_601] (Eterna round: R96, puzzle: Exclusion NG 1)", "MS2 coat protein", 14.2],
  ["AUAAAAGAAGUUAGGAUAUGGAAUCGUGGCAACGACCAGAAGGAACUUGAGGAUCACCCAAGUGAUUCUGAUCG [Atzaace] (Eterna round: R97, puzzle: Brourd's mod of Exclusion 4)", "MS2 coat protein", 15.2],
  ["UUAUUAGCAGGAUAUAUCCGGGAUCACAUGAGGAUCACCCAUGUGACCGCUUGAGAUUCUAUAGAAGGGCUUUAUU [Mod of ViennaUCT 32 - Jieux - Exclusion 5] (Eterna round: R97, puzzle: Exclusion 5)", "MS2 coat protein", 19.6],
  ["UGAGCUUGAGGAUAUACAAGGCGACCGUGAGGUCGAGGGUUACAUGAGGAUCACCCAUGUAGAAGGCAAGUUCU [Mat - Exclusion 2 - JL Mod - D10] (Eterna round: R97, puzzle: Exclusion 2)", "MS2 coat protein", 460],
  ["CCUCAACAGGUCAGGAUAUACCCAACGGCGGACGGGUAGAAGGGACAUGAGGAUCACCCAUGUCCAGAGGUGAG [Eternabot (Original) Solution 11] (Eterna round: R97, puzzle: Brourd's mod of Exclusion 4)", "MS2 coat protein", 45.5]
]}

* * *

Tested on: MS2 coat protein
Assay: apparent KD of MS2 coat protein; higher = weaker reporter binding
Conditions: Eterna round: R107; input ligand: tryptophan 2.4 mM
Grouping rule (apparent KD of MS2 coat protein): lower = under 20 nM, middle = from 20 nM up to 70 nM, upper = 70 nM and over

{"columns": ["CHAIN_SEQUENCE", "ASSIGNED_CATEGORY"],
 "data": [
  ["UGACAUUGCUCAGAUACCAGACAUGAGGAUCACCCAUGUACCAAGGUACGAAAAUAACAUGUCCCUUGGCAGCUGAGCAAUGUCU [First try 2 #MS2Left #Theo2]", "lower"],
  ["AAUAAAUCACAUGAGGAUCACCCAUGUGAUACCAGCCUGGAAACAGGCCCUUGGCAGCACAUGAGGAUCACCCAUGUGCUAAAUA [TheoAX 1 #DoubleMS2 #OpenEnded]", "lower"],
  ["UCACGACGCAACGUGAGAUAAUGAACAGAAGGAGCGAGGAGAGCCUCAGGUAGGUCGCUGACAUGAGGAUCACCCAUGUAUUACA [Same State Arginine A GF6]", "middle"],
  ["CUGGACAUGAGGAUCACCCAUGUAAAUCCUCGAGGACCGGUACGGCCGCCACUCGAACGAGUGGCACGCGAGUGCGCACUCGCGU [aLa]", "middle"],
  ["ACACGUGAGGAUCAUCCAUGUGCCCAUGAAGGAGCGUGGGAAACCACAGGUAGGUCGCAUGACAUGAGGAUCACCCAUGUUUAUU [#04 Exclusion - Arginine A]", "upper"],
  ["UUUUCAGGGUCGGCCGCCACUGGUAUGGCGAGUCCUCGAACAAACAUGAGGAUCACCCAUGUGAACAGGACCGGGACAGCAUGGG [Exclusion Tryptophan B GF 21]", "upper"],
  ["ACUAGUUGUGCAGAUACCAGGCACGAGGAUCACCCGUGUUUGGGAUGUUCGCAUCUUCCUGUCCCUUGGCAGCUGUACAUCUAGA [Omei Theo B Exc v9]", "middle"],
  ["GUCACACAGUAGGAUACCAGCGUGGCUUAUCCCUGAUCGUACAUGAGGAUCACCCAUGUCCGCCCUUGGCAGCCUCCUGCUCGGA [theeternabot_exclusion_MS2_Theo_B_33]", "lower"],
  ["UGUAUGUGAUCUGAUACCAGUCCAACUGGUAAAACCUGAGGAACACCCAGGUAAAAUUGGGACCCUUGGCAGCAGAUCGCAUACU", "upper"],
  ["UAAUUUAUAGGGUAUAUCAGAUUAACUGAAGGAGCGUGGUAAUACACAGGUAGGUCGCAGAUGGAACAUGAGGAUCACCCAUGUU [JR_ExcArginiA_Sub016]", "middle"],
  ["AGCCCGUGAGCGGCCGCCACUGGAGGCUUUGCGCGACAUGAGGAUCACCCAUGUGUGCCCGGCGUUAGGACCGGGUUCGCGUGGU [#1 Same State - Tryptophan B Attempt #18 (HarryS)]", "middle"]
]}

Reference source: the supplement of paper PMC9170038
